Entry source: PubChem BioAssay AID602266

// values below are reported activity change, negative = inhibition
Assay: reduction of heat-induced Hsp90aa mRNA, dose response, orthogonal assay for HSF1 inhibitor project, NIH-3T3 cells, RT-qPCR, cherry-pick (AID 602266)
Conditions: NIH-3T3 HGL cells, heat shock, Hsp90aa mRNA qPCR; at 26 µM (top of the series)
Results filed as inconclusive are left out.
RESULT TYPE: activity change, negative = inhibition (%)

CHEMICAL STRUCTURE	VAL
CN(C(=O)OC(C)(C)C)c1ccc(-c2nc3ccccc3s2)cc1	46.6
CC1CCN(c2ccc(-c3cccc(NC(=O)C(F)(F)F)c3)nn2)CC1	37.6
CC(C)Sc1nc(SCC(=O)NCc2ccco2)c2c3c(sc2n1)COC(C)(C)C3	52.6

###

Assay: reduction of heat-induced Hsp90aa mRNA, dose response, orthogonal assay for HSF1 inhibitor project, NIH-3T3 cells, RT-qPCR, cherry-pick (AID 602266)
Details: NIH-3T3 HGL cells, heat shock, Hsp90aa mRNA qPCR; at 26 µM (top of the series)
Inconclusive results are not listed.
// values below are reported activity change, negative = inhibition

COMPOUND	activity change, negative = inhibition (%)
O=C(Nc1ccc(F)cc1F)c1cc2nc3c(c(C(F)(F)F)n2n1)CCCC3	2.56
CCOc1ccc(OCc2cccc(C(=O)N/N=C/c3cccnc3)c2)cc1	37.3
Cc1ccc(/C=N/Nc2ccc(C(=O)O)cc2)s1	32.5
O=[N+]([O-])c1nn(-c2ccc3c(c2)OCCO3)n(O)c1=Nc1ccccc1	29
C[C@]12C=CC(=O)C=C1CC[C@@H]1[C@@H]2[C@@H](O)C[C@@]2(C)[C@H]1CC[C@]2(O)C(=O)CO	4.41
C[C@@H]1C[C@H]2[C@@H]3CCC4=CC(=O)C=C[C@]4(C)[C@@]3(F)[C@@H](O)C[C@]2(C)[C@@]1(O)C(=O)CO	6.93
Cc1nc(SCC(=O)Nc2nc3ccccc3s2)c(C#N)c(C)c1C	7.25
O=c1c2ccccc2sc2ccc(C#CC3(O)CCCCC3)cc12	49.4
CCS(=O)(=O)N1Cc2ccccc2CC1C(=O)Nc1nc2ccccc2s1 (stereo unspecified)	33.2
COC(=O)c1ccccc1NC(=O)c1ccc(-c2ccc(Br)cc2)o1	4.07
CC1CCCN(c2ncnc3c2cnn3-c2ccc(Cl)cc2)C1 (stereo unspecified)	28.9
C(=N\Nc1nc2ccccc2s1)/c1ccccn1	82.6
N#CCCCC#Cc1ccc2c(c1)COc1c3ccccc3nn1-2	65.7
CC(=O)[C@@]1(O)C(C)CC2C3C=C(C)C4=Cc5c(cnn5-c5ccccc5)C[C@]4(C)C3C(O)C[C@@]21C (stereo partly specified)	97.3
CC12CCC(=O)C=C1CCC1C2C(O)CC2(C)C1CCC2(O)C(=O)CO (stereo unspecified)	4.01
CC(C)(C)c1ccc(/C=N/Nc2cccc(C(=O)O)c2)cc1	12.9
Cc1c(-c2nc(-c3ccc(C(C)(C)C)cc3)no2)n(C)oc1=O	18.8
O=C(CN1C(=O)c2ccccc2S1(=O)=O)c1ccc2c(c1)OCCCO2	13.4
CC(=O)OCC(=O)[C@@]12OC(C)(C)O[C@@H]1CC1C3C[C@H](F)C4=CC(=O)C=CC4(C)[C@@]3(F)C(O)CC12C (stereo partly specified)	-1.11
Cc1cccc(-n2ncc3c(N(C)C4CCCCC4)ncnc32)c1	27
CCC(=O)O[C@]1(C(=O)CCl)[C@@H](C)C[C@H]2[C@@H]3CCC4=CC(=O)C=C[C@]4(C)[C@@]3(F)[C@@H](O)C[C@@]21C	30.2
